System: OVCAR-5
method-notes: NCI tumour cell line growth inhibition, 48 h
Active and inactive are the calls of the source. Cut-off read from the data, not from the text of the source: active = GI50 up to about 1.1 µM and inactive = higher.
Please go through the items and note down their GI50.

Check out these entries, answers already filled in.
- CC(CC(=O)Nc1ccc(NC(=O)CC(C)/N=N\C(N)=S)cc1)/N=N\C(N)=S (stereo unspecified): > 100 µM (inactive)
- Nc1c(Br)c(=O)[nH]c(=O)n1COCCO: > 100 µM (inactive)

Please give GI50 for each item listed below.
1. c1cc(-c2ncc(-c3ccc4c(c3)CCCO4)o2)ccn1
2. CCOC(=N)CC(=O)Nc1cccc(C)c1C
3. COc1cccc2c1C(=O)c1c(O)c3c(c(O)c1C2=O)C[C@@](O)(C(=O)CN1CCOCC1)C[C@@H]3OC1CC(N)C(O)C(C)O1 (stereo partly specified)
4. CN(C)C=C1C(Cl)=C(C=O)CC(C=O)=C1Cl

1. 42.2 µM (inactive)
2. > 100 µM (inactive)
3. 12.4 µM (inactive)
4. 15.9 µM (inactive)

====

System: LOX IMVI
method-notes: NCI tumour cell line growth inhibition, 48 h
Calls of active or inactive are those of the source. Cut-off read from the data, not from the text of the source: active = GI50 up to about 1.1 µM and inactive = higher.
Your answer must be one of the following: active, inactive

See these solved cases before continuing.
- c1cc(C2O[C@H]3CCCN3[C@@H]2c2ccncc2)ccn1 (some centres not stated): inactive
- CCOP(=O)(COCCn1ncc(=O)[nH]c1=O)OCC: inactive
- COc1ccc(N2C(=O)/C(=C(\C)c3cc4ccccc4oc3=O)N=C2c2cc([N+](=O)[O-])ccc2Cl)cc1: inactive
- CC1(C)O[C@H]2[C@@H]3N=C(c4ccccc4)O[C@@H]3C=C[C@H]2O1: inactive
- Clc1ccc2oc(CCc3ccccc3)nc2c1: inactive

# fetch the recorded call for CCCCCC/C=C1\CCC(CN(C)C)C1=O (configuration not stated) here inactive

# fetch the recorded call for Nc1nc(Cl)cc(NCCC2(CO)CCC2)n1 here inactive

# fetch the recorded call for COc1ccc(/C=c2\sc3n(c2=O)CCN=3)cc1 here inactive

# fetch the recorded call for c1ccc(-c2csc3ncn4cnnc4c23)cc1 here inactive

# fetch the recorded call for Cc1cc(OC(=O)NCn2cc(-c3ccccc3)nn2)ccc1Cl here inactive

# fetch the recorded call for NC(=O)C(=Cc1ccc(C(O)P(=O)(O)O)cc1)C(N)=O (configuration not stated) here inactive

# fetch the recorded call for CC(=O)[C@H]1[C@@H](OCc2ccccc2)O[N+]([O-])=C(C)[C@@H]1c1ccccc1 here inactive

# fetch the recorded call for CCOC(=O)NC(=O)c1cn(CCCCCCCCCCC(=O)NCCCN2CCN(CCCNC(=O)CCCCCCCCCCn3cc(C(=O)NC(=O)OCC)c(=O)[nH]c3=O)CC2)c(=O)[nH]c1=O here inactive

# fetch the recorded call for CSc1nc(NC2CCCC2)c2cc[nH]c2n1 here inactive

# fetch the recorded call for O=Cc1[nH]c2ccccc2c1Br here inactive

# fetch the recorded call for CC1C(c2ccccc2)O[B-](F)(c2ccccc2)[NH+]1C (configuration not stated) here inactive

====

System: CCRF-CEM
method-notes: NCI tumour cell line growth inhibition, 48 h
Activity calls are given as the source filed them. No stated cut-off is given here; in the data, active = GI50 up to about 1.1 µM and inactive = higher.
Your answer must be one of the following: label 1 for active, label 0 for inactive

See these solved cases before continuing.
* CN1COCN/C1=N/C#N | label 0
* CCN(CC)C(=S)SC1C(=O)NC(=O)NC1=O | label 0
* CN(C)C=C1C(Cl)=C(C=O)CC(C=O)=C1Cl | label 0

# fetch the recorded call for N#Cc1cc2c(n(C3OC(CO)C(O)C(O)C3O)c1=S)CCC2 (centres undefined) here label 0

# fetch the recorded call for COc1cc(S(=O)(=O)Nc2ccc(-c3csc(N4C(=O)C(C)SC4c4ccccc4O)n3)cc2)ccc1Cl (centres undefined) here label 0

====

Please go through the items and note down their GI50.
Test system: SK-OV-3
method-notes: NCI tumour cell line growth inhibition, 48 h
The source made the active and inactive calls. Cut-off read from the data, not from the text of the source: active = GI50 up to about 1.1 µM and inactive = higher.

• O=C1[C@H](O)[C@@H]2CCC[C@@]23CCCN13 = > 100 µM (inactive)

Please give GI50 for each item listed below.
1. COc1ccc(/C=c2\sc3n(c2=O)CCN=3)cc1
2. CCOC(=O)CN(CC)C(=O)NC12CC3CC(CC(C3)C1)C2
3. CN1C2CCC1CC(CC(=O)NC(c1ccc(F)cc1)c1ccc(F)cc1)C2 (stereo unspecified)
4. COC(=O)c1ccccc1C1CN=NC12Cc1c(ccc3c1CCC3)C2=O (stereo unspecified)
5. COc1ccccc1NC(=O)C1=C(C)NC(C)=C(C(=O)Nc2ccccc2OC)C1c1ccccc1Cl
6. CCOC(=O)c1cc([N+](=O)[O-])cc([N+](=O)[O-])c1Sc1[nH]cnc2ncnc1-2
7. C/C(=N/NS(=O)(=O)c1c(C)cc(C)cc1C)c1cccc[n+]1[O-]
8. O=c1[nH]c(=O)n(C2CC(O)C(CO)O2)c2nc3ccc4cc5ccccc5cc4c3nc12 (stereo unspecified)

1: > 100 µM (inactive); 2: 218 µM (inactive); 3: > 100 µM (inactive); 4: > 100 µM (inactive); 5: > 100 µM (inactive); 6: 11 µM (inactive); 7: > 100 µM (inactive); 8: 53.6 µM (inactive)

Please give GI50 for each item listed below.
1. CC(C(=O)O)C(C)(O)C(=O)O (stereo unspecified)
2. CC(C)(C)OC(=O)NCCCCC(NC(=O)OCc1ccccc1)C(N)=O (stereo unspecified)

1: > 100 µM (inactive); 2: > 100 µM (inactive)

====

Tested on: DU-145
method-notes: NCI tumour cell line growth inhibition, 48 h
Activity calls are given as the source filed them. Rule as the data show it: active = GI50 up to about 1.1 µM and inactive = higher.
Please go through the items and note down their GI50.

Check out these entries, answers already filled in.
* COc1ccc(/N=N/c2ccc3oc(=O)c(C(=O)Nc4ccc(OC)cc4)cc3c2)cc1 | 15.6 µM (inactive)
* O=C(O)c1ccccc1C1c2ccccc2Oc2ccccc21 | 46.7 µM (inactive)
* O=C(Nc1ccc([As](=O)(O)O)cc1)Nc1cccc(Cl)c1Cl | > 100 µM (inactive)
* COc1cc(S(=O)(=O)Nc2ccc(-c3csc(N4C(=O)C(C)SC4c4ccccc4O)n3)cc2)ccc1Cl (stereo unspecified) | 41.3 µM (inactive)
* O=C(O)c1ccc2c(c1)Cc1cc([N+](=O)[O-])ccc1-2 | > 100 µM (inactive)
* Sc1nnc(C23CC4CC(CC(C4)C2)C3)n1-c1ccc(Cl)cc1 | 20.1 µM (inactive)
* O=c1[nH]c(=O)n(C2OC(CO)C(O)C(O)C2O)cc1F (stereo unspecified) | > 100 µM (inactive)
* Cc1ccc2c(c1)C(=S)N1CSCC1c1nncn1-2 (stereo unspecified) | > 100 µM (inactive)
* Cc1ccc(CC2(C(=O)O)Cc3ccc(C)cc3C2)cc1 (stereo unspecified) | > 100 µM (inactive)
* Cn1c(-c2cccs2)cc(-c2ccccc2)c1-c1cccs1 | > 100 µM (inactive)

Next up:
Complete the entry with GI50 for [O-][n+]1ccc(NO)c2ccccc21 1.5 µM (inactive)

====

Please go through the items and note down their GI50.
Test system: OVCAR-3
method-notes: NCI tumour cell line growth inhibition, 48 h
The source made the active and inactive calls. No stated cut-off is given here; in the data, active = GI50 up to about 1.1 µM and inactive = higher.

Check out these entries, answers already filled in.
- COC(=O)/C(=N/O)C(C(=O)C=C(C)C)C(=O)C(=O)Nc1nc2ccc([N+](=O)[O-])cc2s1 (configuration not stated): 21.5 µM (inactive)
- COc1nc2c(nc(N)n2C2OC(CO)C(O)C(O)C2O)c(=O)n1C (configuration not stated): > 100 µM (inactive)
- Sc1ncc2[nH]nnc2n1: > 100 µM (inactive)
- Cc1ccc(CC2(C(=O)O)Cc3ccc(C)cc3C2)cc1 (configuration not stated): > 100 µM (inactive)
- COC(=O)c1ccccc1C1CN=NC12Cc1c(ccc3c1CCC3)C2=O (configuration not stated): 96.2 µM (inactive)
- CCOP(=O)(OCC)/C(C#N)=C/c1coc2cc(C)cc(C)c2c1=O: > 100 µM (inactive)
- c1ccc2c(c1)SCCCSCCCS2: > 100 µM (inactive)
- CC[P+]1(CC)CCCC1: > 100 µM (inactive)
- CC1(N2CCOCC2)CC2C(=[N+]1[O-])CCC/C2=N/O (configuration not stated): > 100 µM (inactive)
- O=C(O)CC1NC(/C(=C/c2ccccc2)NC(=O)c2ccccc2)OC1=O (configuration not stated): 20.6 µM (inactive)

Please give GI50 for each item listed below.
1. CCOC(=O)CN(CC)C(=O)NC12CC3CC(CC(C3)C1)C2
2. COc1ccc(C2COc3cc(OC(C)=O)c(OC(C)=O)cc3C2)cc1 (configuration not stated)
3. Nc1nc(-c2ccc(Cl)c([N+](=O)[O-])c2)cs1
4. O=c1ccn([C@@H]2C=C(CO)[C@@H](O)[C@H]2O)c(=O)[nH]1
5. CC1CCCN(CC(O)CN2CCCc3ccccc32)C1 (configuration not stated)

["105 µM (inactive)", "19.6 µM (inactive)", "> 100 µM (inactive)", "> 625 µM (inactive)", "> 100 µM (inactive)"]
